test: Hydrolysis in human serum; format: in vitro ADME; settings: 37°C, RP-HPLC, half-life of hydrolysis, read-out: Uman Serum stability (t1/2 h) (converted)
RECORDED ENDPOINT: log10(half-life at 250 μM) (log10 of the value in h)
Record value = log10 of half-life at 250 μM given in h.

In the examples that follow, each entry is paired with its recorded log10(half-life at 250 μM).
{"COMPOUND": "O=C(CCCC(CO[N+](=O)[O-])O[N+](=O)[O-])Oc1ccccc1C(=O)O (centres unmarked)", "RECORDED ENDPOINT": "log10(half-life at 250 μM)", "RESULT VALUE": 0.69}
{"COMPOUND": "CC(=O)Oc1ccccc1C(=O)O [Acetylsalicylic acid, reference compound]", "RECORDED ENDPOINT": "log10(half-life at 250 μM)", "RESULT VALUE": 0.14}
{"COMPOUND": "O=C(CCO[N+](=O)[O-])Oc1ccccc1C(=O)O", "RECORDED ENDPOINT": "log10(half-life at 250 μM)", "RESULT VALUE": -0.59}

Request: Entry under review: O=C(CCOc1no[n+]([O-])c1S(=O)(=O)c1ccccc1)Oc1ccccc1C(=O)O . Reported log10(half-life at 250 μM)?
Result: -0.36

Request: Could you do the same for O=C(CCC(CO[N+](=O)[O-])O[N+](=O)[O-])Oc1ccccc1C(=O)O (centres unmarked) , please?
Result: 0.61
